- Test system: newborn Swiss mice
- experimentalProtocol: Experiment II: carcinogenicity in newborn mice, chrysene, 7-methylbenz(a)anthracene and K region epoxides (s.c. injection, tumour incidence to 70-75 weeks)
- conditionSet: males; 100 µg per treatment, 3 treatments
Exercise: state measured No. of mice examined at p.m. from 50-70th week with liver tumours for each of the molecules provided.

**Query** Answer with reported No. of mice examined at p.m. from 50-70th week with liver tumours of c1ccc2c(c1)-c1ccccc1C1OC21 (centres unmarked) [phenanthrene 9,10-oxide]
**Result** 0

**Query** Answer with reported No. of mice examined at p.m. from 50-70th week with liver tumours of Cc1c2ccccc2cc2c1ccc1ccccc12 [7-Methylbenz(a)anthracene, reference compound]
**Result** 11

**Query** Answer with reported No. of mice examined at p.m. from 50-70th week with liver tumours of c1ccc2c(c1)ccc1c3ccccc3ccc21 [Chrysene, reference compound]
**Result** 0

**Query** Answer with reported No. of mice examined at p.m. from 50-70th week with liver tumours of c1ccc2c(c1)-c1ccc3ccccc3c1C1OC21 (centres unmarked) [Chrysene 5,6-oxide]
**Result** 0

**Query** Answer with reported No. of mice examined at p.m. from 50-70th week with liver tumours of Cc1c2c(cc3ccccc13)-c1ccccc1C1OC21 (centres unmarked) [7-Methylbenz(a)anthracene 5,6-oxide]
**Result** 0

====

- System: newborn Swiss mice
- experimentalProtocol: Experiment II: carcinogenicity in newborn mice, chrysene, 7-methylbenz(a)anthracene and K region epoxides (s.c. injection, tumour incidence to 70-75 weeks)
- conditionSet: females; 100 µg per treatment, 3 treatments (Days 0, 1 and 2) s.c. in PEG 400
Exercise: state measured No. of survivors at 70 weeks for each of the compounds provided.
Format: numeric value only, no unit, no commentary.

**Query** Answer with reported No. of survivors at 70 weeks of c1ccc2c(c1)-c1ccc3ccccc3c1C1OC21 (centres unmarked) [Chrysene 5,6-oxide]
**Result** 20

**Query** Answer with reported No. of survivors at 70 weeks of c1ccc2c(c1)ccc1c3ccccc3ccc21 [Chrysene, reference compound]
**Result** 21

**Query** Answer with reported No. of survivors at 70 weeks of Cc1c2ccccc2cc2c1ccc1ccccc12 [7-Methylbenz(a)anthracene, reference compound]
**Result** 10

**Query** Answer with reported No. of survivors at 70 weeks of Cc1c2c(cc3ccccc13)-c1ccccc1C1OC21 (centres unmarked) [7-Methylbenz(a)anthracene 5,6-oxide]
**Result** 22

**Query** Answer with reported No. of survivors at 70 weeks of c1ccc2c(c1)-c1ccccc1C1OC21 (centres unmarked) [phenanthrene 9,10-oxide]
**Result** 13

====

- Test system: newborn Swiss mice
- experimentalProtocol: Experiment II: carcinogenicity in newborn mice, chrysene, 7-methylbenz(a)anthracene and K region epoxides (s.c. injection, tumour incidence to 70-75 weeks)
- conditionSet: females; 100 µg per treatment, 3 treatments
Exercise: state measured No. of mice examined at p.m. from 50-70th week with other tumours for each of the compounds provided.
Format: numeric value only, no unit, no commentary.

**Query** Specify the recorded No. of mice examined at p.m. from 50-70th week with other tumours for Cc1c2c(cc3ccccc13)-c1ccccc1C1OC21 (centres unmarked) [7-Methylbenz(a)anthracene 5,6-oxide] , system: newborn Swiss mice.
**Result** 0

**Query** Specify the recorded No. of mice examined at p.m. from 50-70th week with other tumours for Cc1c2ccccc2cc2c1ccc1ccccc12 [7-Methylbenz(a)anthracene, reference compound] , system: newborn Swiss mice.
**Result** 1

**Query** Specify the recorded No. of mice examined at p.m. from 50-70th week with other tumours for c1ccc2c(c1)ccc1c3ccccc3ccc21 [Chrysene, reference compound] , system: newborn Swiss mice.
**Result** 0

**Query** Specify the recorded No. of mice examined at p.m. from 50-70th week with other tumours for c1ccc2c(c1)-c1ccc3ccccc3c1C1OC21 (centres unmarked) [Chrysene 5,6-oxide] , system: newborn Swiss mice.
**Result** 0

**Query** Specify the recorded No. of mice examined at p.m. from 50-70th week with other tumours for c1ccc2c(c1)-c1ccccc1C1OC21 (centres unmarked) [phenanthrene 9,10-oxide] , system: newborn Swiss mice.
**Result** 0

Sourced from paper PMC2009384
